- EXPERIMENT: in vitro
- EXPERIMENTAL SETUP: pig, LC50, WST-1 viability
MEASUREMENT NAME: CC50 (mM)
Please reply with the bare figure in mM and do not write the unit itself.

// sample CC(=O)Nc1ccc(O)cc1 [acetaminophen] , its CC50 was 12.6

---

- Tested on: PICM-19H cells
- EXPERIMENTAL SETUP: pig
MEASUREMENT NAME: CC50

// sample CC(=O)Nc1ccc(O)cc1 [acetaminophen] , its CC50 was ~13 mM
